Record form. Attribute: self-splicing fitness (ln). Fill in for each entry.
assay.remarks: self-splicing fitness, log relative to wild type (ln ratio); higher = more splicing; Tetrahymena group I intron in knt gene, E. coli kanamycin selection, DiMSum; sequences stand for … in CUCUCU…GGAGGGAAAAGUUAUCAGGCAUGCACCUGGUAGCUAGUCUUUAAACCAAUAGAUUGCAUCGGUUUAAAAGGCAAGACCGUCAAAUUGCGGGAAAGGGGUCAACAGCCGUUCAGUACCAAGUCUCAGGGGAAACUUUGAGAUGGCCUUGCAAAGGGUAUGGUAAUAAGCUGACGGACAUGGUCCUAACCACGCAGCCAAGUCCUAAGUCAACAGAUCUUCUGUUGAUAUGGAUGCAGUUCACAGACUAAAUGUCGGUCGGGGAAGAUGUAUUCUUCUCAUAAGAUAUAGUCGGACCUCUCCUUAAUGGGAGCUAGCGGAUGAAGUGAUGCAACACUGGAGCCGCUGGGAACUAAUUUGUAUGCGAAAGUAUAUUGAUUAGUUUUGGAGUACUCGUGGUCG;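 also: selection with 25 µg/mL kanamycin versus none on LB agar overnight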
stated.conditions: 30 °C
Give bare numbers.

Below are worked cases with known answers.
primary.sequence	self-splicing fitness (ln)
AGACAGCAAUAUUACGGGGA	-3.11
UCCUAGCAAUAUUACGCGAG	-3.06
ACAAAGCAAUAUUACGGAAC	-3.33

Could you tell me self-splicing fitness (ln) for each of these sequences? They are listed below.
1. GGCUAGCAAUAUUACGGCCG
2. AUCCAGCAAUAUUACGCCCU

Response line:
[-1.45, -0.182]

----------
assay.remarks: self-splicing fitness, log relative to wild type (ln ratio); higher = more splicing; Tetrahymena group I intron in knt gene, E. coli kanamycin selection, DiMSum; sequences stand for … in CUCUCU…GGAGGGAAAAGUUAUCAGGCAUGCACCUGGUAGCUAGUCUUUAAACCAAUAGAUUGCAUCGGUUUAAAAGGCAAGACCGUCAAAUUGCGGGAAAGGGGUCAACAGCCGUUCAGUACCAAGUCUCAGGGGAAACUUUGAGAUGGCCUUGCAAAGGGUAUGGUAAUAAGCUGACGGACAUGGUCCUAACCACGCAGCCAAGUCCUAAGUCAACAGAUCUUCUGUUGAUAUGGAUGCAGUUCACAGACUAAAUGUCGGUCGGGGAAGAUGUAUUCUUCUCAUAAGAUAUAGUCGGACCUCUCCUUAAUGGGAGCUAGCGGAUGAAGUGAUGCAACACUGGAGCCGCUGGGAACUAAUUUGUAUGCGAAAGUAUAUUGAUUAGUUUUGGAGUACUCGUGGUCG
stated.conditions: 30 °C
Entry flag: Yes if self-splicing fitness (ln) reaches -2; No if it does not.

Known results for sequences:
primary.sequence	class
AUCAAGCAAUAUUACGAGAC	No
AUAUAGCAAUAUUACGUUUG	No
CACAAGCAAUAUUACGUGGG	No
CGUUAGCAAUAUUACGUCCU	Yes
AGCAAGCAAUAUUACGAACC	Yes
AGCUAGCAAUAUUACGCUAG	No

Now examine the next entry.
Prompt line: Please tell me: is the sequence GUCUAGCAAUAUUACGGUCU at or over -2 in terms of self-splicing fitness (ln)?
Response line: No

----------
assay.remarks: self-splicing fitness, log relative to wild type (ln ratio); higher = more splicing; Tetrahymena group I intron in knt gene, E. coli kanamycin selection, DiMSum; sequences stand for … in CUCUCU…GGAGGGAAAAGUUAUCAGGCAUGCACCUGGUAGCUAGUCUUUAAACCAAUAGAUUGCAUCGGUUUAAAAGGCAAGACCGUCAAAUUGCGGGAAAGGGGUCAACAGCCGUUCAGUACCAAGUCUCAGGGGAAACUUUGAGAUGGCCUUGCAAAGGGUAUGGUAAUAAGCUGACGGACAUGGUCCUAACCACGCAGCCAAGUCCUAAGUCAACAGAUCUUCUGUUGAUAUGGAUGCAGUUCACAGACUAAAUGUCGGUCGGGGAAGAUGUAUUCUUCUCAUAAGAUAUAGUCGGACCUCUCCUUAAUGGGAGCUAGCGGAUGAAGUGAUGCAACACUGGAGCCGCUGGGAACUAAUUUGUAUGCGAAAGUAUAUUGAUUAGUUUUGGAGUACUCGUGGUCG
stated.conditions: 37 °C
measured.metric: self-splicing fitness (ln)
Answers are plain numbers.

Below are worked cases with known answers.
primary.sequence	measured.number
AAGCAGCAAUAUUACGGACA	0.0141
AGUAAGCAAUAUUACGACGU	-0.132
AUCAAGCAAUAUUACGUCCU	0.533
GGGCAGCAAUAUUACGAUGU	-0.5
AAGGAGCAAUAUUACGAGUU	-1.65
AACUAGCAAUAUUACGUUGU	-2.29
AGAAAGCAAUAUUACGCGCC	0.139
AUUAAGCAAUAUUACGUGCG	0.0786

Could you tell me self-splicing fitness (ln) for each of these sequences? They are listed below.
1. CUAGAGCAAUAUUACGUAUU
2. AUUAAGCAAUAUUACGUUGC
3. ACUAAGCAAUAUUACGAGUC
4. CAAGAGCAAUAUUACGCGCC
5. UUCUAGCAAUAUUACGGACU
6. CCCUAGCAAUAUUACGGGGA

Response line:
1. -3.03
2. -3.01
3. -2.73
4. -1.74
5. -1.16
6. -2.41

# credit: the supplement of paper PMC7877785
